// provenance: ChEMBL document CHEMBL3885881

# Organism: Rattus norvegicus
# Protocol details: DrugMatrix - Regimen: Daily Repeat
# Type: toxicity, organism-based, Sprague-Dawley
# Set-up: regimen Daily Repeat, gender Male, age 6-8 weeks
# Applied conditions: in vivo, po, […], 120 h, tissue Blood, route oral GAVAGE, dose 7.5 mg/Kg, dose level High, time 5 day, vehicle 100 % SALINE
Parameter: ABSOLUTE LYMPHOCYTE (cells/µL)

- Structure: "Nc1ncnc2c1ncn2[C@@H]1O[C@H](CO)[C@@H](O)[C@H]1F"
  Parameter: "ABSOLUTE LYMPHOCYTE"
  Meas value: 11100

====

# Species on record: Rattus norvegicus
# Protocol details: DrugMatrix - Regimen: Daily Repeat
# Assay type: toxicity, organism-based, Sprague-Dawley
# Design: regimen Daily Repeat, gender Male, age 6-8 weeks
# Applied conditions: in vivo, sc, 0 mg/kg, 120 h, tissue Plasma, route subcutaneous, dose level Control, time 5 day, […]
Form field: PHOSPHORUS (one value per entry).

- Molecule: "CC(C)(C)CC(C)(C)c1ccc(OCCOCC[N+](C)(C)Cc2ccccc2)cc1.[Cl-] [BENZETHONIUM CHLORIDE]"
  Unit spec: "mg/dL"
  PHOSPHORUS: 10.93
- Molecule: "CCN(CC)CCOCCC1=CCC2CC1C2(C)C (stereo not given)"
  Unit spec: "mg/dL"
  PHOSPHORUS: 12.18
- Molecule: "CCC(=O)O[C@]1(C(=O)CCl)[C@@H](C)C[C@H]2[C@@H]3CCC4=CC(=O)C=C[C@]4(C)[C@@]3(F)[C@@H](O)C[C@@]21C [CLOBETASOL PROPIONATE]"
  Unit spec: "mg/dL"
  PHOSPHORUS: 12.78
- Molecule: "Oc1c(Cl)cc(Cl)c(Cl)c1Cc1c(O)c(Cl)cc(Cl)c1Cl"
  Unit spec: "mg/dL"
  PHOSPHORUS: 10.93
- Molecule: "O=C(Nc1ccc(Br)cc1)c1cc(Br)cc(Br)c1O"
  Unit spec: "mg/dL"
  PHOSPHORUS: 12.78

====

# Organism: Rattus norvegicus
# Protocol details: DrugMatrix - Regimen: Daily Repeat
# Type: toxicity, organism-based, Sprague-Dawley
# Parameters: regimen Daily Repeat, gender Male, age 6-8 weeks
# Applied conditions: in vivo, po, 50 mg/kg, 120 h, tissue Blood, route oral GAVAGE, dose level Low, time 5 day, vehicle .5 % CMC
Parameter: PLATELET COUNT (x10E3/uL)

- Molecule: "CN(C)[C@@H]1C(O)=C(C(N)=O)C(=O)[C@@]2(O)C(O)=C3C(=O)c4c(O)ccc(Cl)c4[C@@](C)(O)[C@H]3C[C@@H]12"
  Unit spec: "x10E3/uL"
  Meas value: 1240.33
- Molecule: "Cc1cccc(C)c1OCC(C)N (centres undefined)"
  Unit spec: "x10E3/uL"
  Meas value: 1342.33
- Molecule: "CCN1CCC[C@H]1CNC(=O)c1cc(S(N)(=O)=O)ccc1OC [LEVOSULPIRIDE]"
  Unit spec: "x10E3/uL"
  Meas value: 1180.67
- Molecule: "NC1CCN(c2nc3c(cc2F)c(=O)c(C(=O)O)cn3-c2ccc(F)cc2F)C1 (centres undefined)"
  Unit spec: "x10E3/uL"
  Meas value: 1222.33

====

# Species on record: Rattus norvegicus
# Protocol details: DrugMatrix - Regimen: Daily Repeat
# Type: toxicity, organism-based, Sprague-Dawley
# Parameters: regimen Daily Repeat, gender Male, age 6-8 weeks
# Applied conditions: in vivo, po, 0 mg/kg, 72 h, tissue Plasma, route oral GAVAGE, dose level Control, time 3 day, vehicle 100 % WATER
Mark Criterion not met for CARBON DIOXIDE values under 30 mmol/L, and Criterion met for everything at or above.

- Molecule: "Cc1ccc(NC(=O)c2ccc(CN3CCN(C)CC3)cc2)cc1Nc1nccc(-c2cccnc2)n1 [IMATINIB]"
  Classification: "Criterion not met"
- Molecule: "CS(=O)(=O)c1ccc([C@@H](O)[C@@H](CO)NC(=O)C(Cl)Cl)cc1 [THIAMPHENICOL]"
  Classification: "Criterion not met"
- Molecule: "CC(C)NCC(O)c1ccc(NS(C)(=O)=O)cc1 (configuration not stated) [SOTALOL]"
  Classification: "Criterion not met"
- Molecule: "O.O.O.O.O.O.[Cl-].[Cl-].[Sr+2] [STRONTIUM CHLORIDE HEXAHYDRATE]"
  Classification: "Criterion not met"
- Molecule: "CCN(CC)CCNC(=O)c1cc(S(C)(=O)=O)ccc1OC [TIAPRIDE]"
  Classification: "Criterion not met"
- Molecule: "Cn1c(=O)c2[nH]cnc2n(C)c1=O.O [THEOPHYLLINE]"
  Classification: "Criterion met"
- Molecule: "CN(C)CC[C@@H](c1ccc(Cl)cc1)c1ccccn1 [DEXCHLORPHENIRAMINE]"
  Classification: "Criterion met"

====

# Species on record: Rattus norvegicus
# Protocol details: DrugMatrix - Regimen: Daily Repeat
# Assay type: toxicity, organism-based, Sprague-Dawley
# Design: regimen Daily Repeat, gender Male, age 6-8 weeks
# Applied conditions: in vivo, po, 0 mg/kg, 120 h, tissue Blood, route oral GAVAGE, dose level Control, time 5 day, vehicle 100 % WATER
# reported ABSOLUTE EOSINOPHIL; entries follow
Parameter: ABSOLUTE EOSINOPHIL (CELLS/uL)

- Compound: "CN(C)CCOC(c1ccccc1)c1ccccc1 [DIPHENHYDRAMINE]"
  Unit spec: "CELLS/uL"
  Meas value: 22.83
- Compound: "CN(C)CC[C@@H](c1ccc(Cl)cc1)c1ccccn1"
  Unit spec: "CELLS/uL"
  Meas value: 19.33
- Compound: "C[C@]12C=CC(=O)C=C1CC[C@@H]1[C@@H]2[C@@H](O)C[C@@]2(C)[C@H]1CC[C@]2(O)C(=O)CO"
  Unit spec: "CELLS/uL"
  Meas value: 25.33
- Compound: "CC(C)(C)CC(C)(C)c1ccc(OCCOCC[N+](C)(C)Cc2ccccc2)cc1.[Cl-] [BENZETHONIUM CHLORIDE]"
  Unit spec: "CELLS/uL"
  Meas value: 22.83
- Compound: "CC(C)NCC(O)c1ccc(NS(C)(=O)=O)cc1 (stereo not given)"
  Unit spec: "CELLS/uL"
  Meas value: 24

====

# Organism: Rattus norvegicus
# Protocol details: DrugMatrix - Regimen: Daily Repeat
# Type: toxicity, organism-based, Sprague-Dawley
# Parameters: regimen Daily Repeat, gender Male, age 6-8 weeks
# Applied conditions: in vivo, po, 0 mg/kg, 72 h, tissue Plasma, route oral GAVAGE, dose level Control, time 3 day, vehicle .5 % CMC
Decision: CHOLESTEROL compared against 70 mg/dL; not below it gives TRUE, below it gives FALSE.

- Molecule: "NC1CCN(c2nc3c(cc2F)c(=O)c(C(=O)O)cn3-c2ccc(F)cc2F)C1 (stereo not drawn) [TOSUFLOXACIN]"
  Classification: "TRUE"
- Molecule: "CNCCC(Oc1ccc(C(F)(F)F)cc1)c1ccccc1 (stereo not drawn) [FLUOXETINE]"
  Classification: "FALSE"
- Molecule: "NCCCC(O)(P(=O)(O)O)P(=O)(O)O [ALENDRONIC ACID]"
  Classification: "TRUE"
- Molecule: "CC(C(=O)O)c1ccc2oc(-c3ccc(Cl)cc3)nc2c1 (stereo not drawn) [BENOXAPROFEN]"
  Classification: "TRUE"
- Molecule: "CCN(CC)CCOc1ccc(/C(=C(/Cl)c2ccccc2)c2ccccc2)cc1 [ENCLOMIPHENE]"
  Classification: "TRUE"
- Molecule: "CC(=O)Oc1ccc(C(c2ccc(OC(C)=O)cc2)c2ccccn2)cc1 [BISACODYL]"
  Classification: "TRUE"
- Molecule: "COc1cc2nc(N3CCN(C(=O)c4ccco4)CC3)nc(N)c2cc1OC [PRAZOSIN]"
  Classification: "FALSE"
- Molecule: "CN(C/C=C/C#CC(C)(C)C)Cc1cccc2ccccc12 [TERBINAFINE]"
  Classification: "TRUE"
- Molecule: "O=C1Nc2ccc(Cl)cc2C(c2ccccc2Cl)=NC1O (stereo not drawn) [LORAZEPAM]"
  Classification: "FALSE"
- Molecule: "COc1ccc(C2C(=O)c3ccccc3C2=O)cc1 [ANISINDIONE]"
  Classification: "TRUE"
- Molecule: "O=C1C(CC[S+]([O-])c2ccccc2)C(=O)N(c2ccccc2)N1c1ccccc1 (stereo not drawn) [SULFINPYRAZONE]"
  Classification: "FALSE"
- Molecule: "Clc1ccccc1CN1CCc2sccc2C1 [TICLOPIDINE]"
  Classification: "TRUE"

====

# Species: Rattus norvegicus
# Protocol details: DrugMatrix - Regimen: Daily Repeat
# Format: toxicity, organism-based, Sprague-Dawley
# Set-up: regimen Daily Repeat, gender Male, age 6-8 weeks
# Applied conditions: in vivo, po, 2000 mg/kg, 72 h, tissue Plasma, route oral GAVAGE, dose level High, time 3 day, vehicle .5 % CMC
Measured CARBON DIOXIDE accompanies every entry in the list below.
Parameter: CARBON DIOXIDE

- Molecule: "O=C1Nc2ccc(Cl)cc2C(c2ccccc2Cl)=NC1O (centres undefined)"
  Parameter: "CARBON DIOXIDE"
  Meas value: "21.33 mmol/L"
- Molecule: "COc1cc2nc(N3CCN(C(=O)c4ccco4)CC3)nc(N)c2cc1OC"
  Parameter: "CARBON DIOXIDE"
  Meas value: "24 mmol/L"
- Molecule: "CC1(C)S[C@@H]2[C@H](NC(=O)[C@H](N)c3ccccc3)C(=O)N2[C@H]1C(=O)O"
  Parameter: "CARBON DIOXIDE"
  Meas value: "32 mmol/L"
- Molecule: "CN/C(=N/CCSCc1nc[nH]c1C)NC#N"
  Parameter: "CARBON DIOXIDE"
  Meas value: "32.33 mmol/L"
